B1: tRNA (parent)
chain: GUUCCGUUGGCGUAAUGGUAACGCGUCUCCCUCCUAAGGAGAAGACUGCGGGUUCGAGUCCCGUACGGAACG

# Variants of: B1
# Test Protocol: yeast fitness relative to wild type (ratio to wild type); higher = fitter; tRNA-Arg(CCU), competitive growth, 37 C, YPD
This sample holds only a part of the variants without activity.
Listing of entries alongside the reported yeast fitness.
Property Label: yeast fitness

1) GUUCCAUUGGCGAAAUGGUAACGCGUCUCCCUCCUAAGGAGAAGACUGCGGGUUCGAGUCCCGUACGGAACG [G6A U13A] :: 0.848
2) GUUCCAUUGGCGUAAUGGUAACGCGUCUCCCUCCUAAGGAGAAGACUGCGGGUUCGCGUCCCGUACGGAACG [G6A A57C] :: 0.627
3) GUUCCGUUGGCGUAAUGGUAACGCGUCACCCUCCUAAGGAGAGGACUGCGGGUUCGAGUCCCGUACGCAACG [U28A A43G G68C] :: 0.642
4) GUUCCGUUGGCGUAGUGGUAACGCGUCUCCCUCGUAAGGAGAAGACUGCGGGUUCGAGUCCCGUACGGAACG [A15G C34G] :: 0.636
5) GUUCCGUUGGCGUAAUGGUAACGCGUCUCCCUCCUAAGGAGAAGACUGCGGGUUCGAGUCGCGUACGGAUCG [C61G A70U] :: 0.772
6) GUUCCGUUGGCGUAAUGGUAACGAGUCUCCCUCCUAAGGAGAAGACUGCGGGUUCGAGUCCCGUUCGGAACG [C24A A65U] :: 0.549
7) GUCCCGUUGGCGUAAUGGUAACGCGUCUCCCUCCUAAGGAGAAGACUGCGGGUUCGAAUCUCGUACGGAGCG [U3C G58A C61U A70G] :: 0.777
8) GUUCCGGUAGCGUAAUGGUAACGCGUCUCCGUCCUGAGGAGAAGACUGCGGGUUCGAGUCCCGUACGGAACG [U7G G9A C31G A36G] :: 0.576
9) GUUCUGUUGGCGUAAUGGUAACGCGUCGCCCUCCUAAGGCGAAGACUGCGGGUUCGAGUCCCGUACGGAACG [C5U U28G A40C] :: 0.613
10) GUUCCGUUGGCGUAUUGGUAACGCGUCUCCCUCCUAAGGACAAGACUGCGGGUUCGAGUCCCGUACGGAACG [A15U G41C] :: 0.784
11) GUUCCGUUGGCGUAAUGGUAACGCGUCUCCCUCCUAAGGAGAACACUGCGGGUUCAGGUCCCGUACGGAACG [G44C G56A A57G] :: 0.543
12) GUUCCGUUGGCGUAAUGGUAACGCGUAUCCCUCCUAAGGAGAAGACUGCGGGAUCGAGUCCCGUACGGAACG [C27A U53A] :: 0.639
13) GUUCCGUUGGCGUAAUGGUAACGAGUCUCCCUCCUAAGGAGGAGACUGCGGGUUCGAGUCCCGUACGGAACG [C24A A42G] :: 0.548
14) GUUCCGUAGGCGUAAUGGGAAUGCGUCUCCCUCCUAAGGAGAAGACUGCGGGUUCGAAUCCCGUACGGAACG [U8A U19G C22U G58A] :: 0.568
15) GUUUCGUUGGCGUAAUGGUAACGCGUCUACCUCCUAAGGAGAAGACUGCGGCUUGGAGGCCCGUACGGAACG [C4U C29A G52C C55G U59G] :: 0.656
16) GUUCCGUUGGCGUAAUGGUAACGCGUCACCAUCCUAAGGAGCAGUCUGCGAGUUCGAGUCCCGAACGGAACG [U28A C31A A42C A45U G51A U64A] :: 0.512
17) GUUCCGUUGGCGUAAUGGUAACGCGUCUUCCUCCUAAGGAGAUGAAUGCGGGUUCGAGUCGCGUACGAAACG [C29U A43U C46A C61G G68A] :: 0.567
18) GUUCCGUUGGCGUAUUGGUAACGCGUCUCCCUCCUAAGGAGAAGACUGCGGAUUCGAGUCCCGUACGGAACG [A15U G52A] :: 0.606
